Test: AUC (0 to t) in male ICR mouse at 10 mg/kg, po measured for 0.25 to 24 hrs by LC-MS/MS analysis
Type: ADME, organism-based
Conditions: in vivo, time 0.25-24 hrs
measured.quantity: AUC(0-t) (ng·h/mL)
Numbers only; they are read as ng·h/mL.

Query O=C(NCc1cc(F)ccc1F)c1c[nH]c(-c2ccc(OC(F)F)c(OCC3CC3)c2)n1 yields AUC(0-t) of 3570

* * *

Test: Apparent volume of distribution in male ICR mouse at 5 mg/kg, iv measured for 0.083 to 24 hrs by LC-MS/MS analysis
Assay type: ADME, organism-based
Conditions: in vivo, time 0.083-24 hrs, read-out: Vz
measured.quantity: Vd (L/kg)
Numbers only here, please. The scale is L/kg.

Query O=C(NCc1cc(F)ccc1F)c1c[nH]c(-c2ccc(OC(F)F)c(OCC3CC3)c2)n1 yields Vd of 1.35

* * *

Biological target: 3',5'-cyclic-AMP phosphodiesterase 4D (Homo sapiens)
measured.quantity: pIC50
As a rule, pIC50 stands for the negative log10 of the concentration, concentration in M.

pIC50 recorded for this compound, O=C(NCc1ccc(F)cc1F)c1c[nH]c(-c2ccc(OC(F)F)c(OCC3CC3)c2)n1 , is 8.32

* * *

Target: 3',5'-cyclic-AMP phosphodiesterase 4D (Homo sapiens, UniProt Q08499)
Sequence (Q08499 whole entry): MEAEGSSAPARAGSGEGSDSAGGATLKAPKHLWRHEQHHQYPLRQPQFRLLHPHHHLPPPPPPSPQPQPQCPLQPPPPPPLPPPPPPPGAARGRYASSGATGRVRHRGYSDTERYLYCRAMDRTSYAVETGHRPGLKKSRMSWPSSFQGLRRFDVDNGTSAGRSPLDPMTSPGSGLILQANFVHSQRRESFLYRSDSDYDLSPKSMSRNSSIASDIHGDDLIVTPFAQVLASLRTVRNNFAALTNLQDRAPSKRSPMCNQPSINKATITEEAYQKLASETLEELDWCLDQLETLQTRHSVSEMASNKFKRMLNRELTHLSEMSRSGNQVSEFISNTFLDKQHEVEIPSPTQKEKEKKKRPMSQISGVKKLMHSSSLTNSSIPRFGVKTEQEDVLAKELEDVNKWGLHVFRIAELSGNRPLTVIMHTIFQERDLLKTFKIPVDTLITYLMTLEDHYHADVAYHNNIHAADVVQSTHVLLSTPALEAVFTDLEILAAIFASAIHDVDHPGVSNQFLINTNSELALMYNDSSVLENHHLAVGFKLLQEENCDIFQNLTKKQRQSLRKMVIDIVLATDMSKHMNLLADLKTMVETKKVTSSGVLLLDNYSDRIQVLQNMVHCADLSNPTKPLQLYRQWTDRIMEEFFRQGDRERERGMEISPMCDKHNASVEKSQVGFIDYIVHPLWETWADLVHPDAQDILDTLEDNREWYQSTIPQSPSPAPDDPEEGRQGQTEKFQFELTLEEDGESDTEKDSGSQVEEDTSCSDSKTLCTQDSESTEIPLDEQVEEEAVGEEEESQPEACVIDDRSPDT
Test: Inhibition of full-length PDE4D2 (unknown origin) using FAM-cAMP as substrate at 1 uM preincubated with compound for 15 mins followed by substrate addition and measured after 30 mins by fluorescence polarization based IMAP assay relative to control
Conditions: time 45.0 min
Let's look at some compounds and their measured inhibition.
State the answer as a number, implicitly in %.

O=C(NCc1ccccn1)c1c[nH]c(-c2ccc(OC(F)F)c(OCC3CC3)c2)n1
96.7

Now consider the entry below.
// inhibition (3',5'-cyclic-AMP phosphodiesterase 4D (Homo sapiens, UniProt Q08499)) for O=C(Nc1nc2ccccc2s1)c1coc(-c2ccc(OC(F)F)c(OCC3CC3)c2)n1 = 33.4

* * *

Experiment: AUC (0 to infinity) in male ICR mouse at 10 mg/kg, po measured for 0.25 to 24 hrs by LC-MS/MS analysis
Format: ADME, organism-based
Details: in vivo, time 0.25-24 hrs
measured.quantity: AUC(0-inf) (ng·h/mL)
Quick reminder: number only, in ng·h/mL, skip the unit.

In plain terms, O=C(NCc1cc(F)ccc1F)c1c[nH]c(-c2ccc(OC(F)F)c(OCC3CC3)c2)n1 has a documented AUC(0-inf) of 3930

* * *

Assay: Oral bioavailability in male ICR mouse at 10 mg/kg measured for 0.25 to 24 hrs by LC-MS/MS analysis
Assay type: ADME, organism-based
Conditions: in vivo, time 0.25-24 hrs
measured.quantity: bioavailability (%)
Supply the numeric figure in %, leaving out any unit text.

Record O=C(NCc1cc(F)ccc1F)c1c[nH]c(-c2ccc(OC(F)F)c(OCC3CC3)c2)n1 . Reported bioavailability: 35.6

* * *

Assay: Cytotoxicity against human HaCaT cells assessed as reduction in cell viability incubated for 24 hrs by CCK-8 assay
Format: toxicity, cell-based
Consider the following molecules and their measured CC50 at 24 h readings.

O=C(NCc1cc(F)ccc1F)c1c[nH]c(-c2ccc(OC(F)F)c(OCC3CC3)c2)n1
> 50 µM

Entry O=C(NCc1ncccn1)c1c[nH]c(-c2ccc(OC(F)F)c(OCC3CC3)c2)n1 ; CC50 at 24 h = > 50 µM
